- Substrate: CCCCC/C=C\C/C=C\C=C\[C@@H](C/C=C\CCCC(=O)O)OO
- procedure-summary: purified protein
- Format: biochemical, Capnella imbricata
- particulars: 50 mM Tris pH 8.0, 100 mM NaCl, 1 mM CaCl2, 20 °C, 5–50 μM substrate

>  <protein>
C. imbricata cHPL (catalase-related hydroperoxide lyase domain) (Capnella imbricata; P65A) (protein, N-terminal cHPL domain of the HPL-LOX fusion protein, without the LOX domain; cHPL-His4 in pET11a; E. coli BL21(DE3), Ni-NTA; heme protein; monomer 45 kDa plus oligomers 440-670 kDa) MVWKNFGYEIFAEKFGKDELEKRIKDEHTAPPESPLFGSLKLKMKKEKFKILFTLRTTMEGFRRATHTVATGGLGEITIVSDPKFPEHEFYRAGRKFPARLRHANLKLLDDAGSDARSFSIKFADNDSESPMDIVMNTGEANIFWNTSSFEDFVSSSAGESAAKEYVYKNPYYYYYSIEALRRAPETFAHLYYYSQLTMHFKAKDGKVRYCRYRAIPGDADIKEEEESGRLTEEEQRNVWIRSRHQNEKRPDDYLRKEYVERLGKGPVNYRLQIQIHEASPDDTATIFHAGIMWNKETHPWFDLAKVSIKTPLSPDVLERTSFNIVNQPESLGLLEAKSPEDYNSIGQIRVAVYKWIQHLRKLKVGSLVPTGQN

>  <Km / µM>
15.3

$$$$
